Overview of reported MFC (µM) C. albicans across a group of compounds:
Test system: C. albicans
Type: cell-based, Candida albicans (TIMM, 1768)
test context: 20 µl of wells without growth on Sabouraud 4% Dextrose Agar, 18 h, 37 °C
Where a SMILES comes first, the peptide text is derived from it.
Quick note: give the figure in µM, leave out the unit.

compound: CC(C)C[C@H](NC(=O)[C@H](C)NC(=O)[C@H](Cc1ccccc1)NC(=O)[C@@H](N)Cc1ccccc1)C(=O)N[C@@H](CCC(N)=O)C(=O)N[C@@H](CS)C(=O)N[C@@H](C)C(=O)N[C@@H](C)C(=O)N[C@@H](CCCCN)C(=O)N[C@H](C(=O)N[C@@H](CCCNC(=N)N)C(=O)N[C@H](C(=O)N[C@@H](CCCNC(=N)N)C(=O)N[C@@H](CCCNC(=N)N)C(=O)N[C@H](C(=O)O)C(C)C)[C@@H](C)O)[C@@H](C)O [AD12] (H-FFALQCAAKTRTRRV-OH)
target: C. albicans
recorded number: 12.5
--
compound: CC(C)C[C@H](NC(=O)[C@H](CCCNC(=N)N)NC(=O)[C@H](Cc1c[nH]c2ccccc12)NC(=O)[C@H](CCCNC(=N)N)NC(=O)[C@H](CC(C)C)NC(=O)[C@@H](N)Cc1ccccc1)C(=O)N[C@@H](CCCCN)C(=O)N[C@@H](Cc1ccccc1)C(=O)N[C@@H](CCCCN)C(=O)N[C@@H](CO)C(=O)N[C@@H](CCCCN)C(=O)N[C@H](C(=O)N[C@@H](Cc1c[nH]c2ccccc12)C(=O)N[C@@H](CS)C(=O)N1CCC[C@H]1C(=O)O)C(C)C [AD7] (H-FLRWRLKFKSKVWCP-OH)
target: C. albicans
recorded number: 6.25
--
compound: CC(C)[C@H](NC(=O)[C@H](CO)NC(=O)[C@H](Cc1ccccc1)NC(=O)[C@H](CC(N)=O)NC(=O)[C@H](CS)NC(=O)[C@H](Cc1ccc(O)cc1)NC(=O)[C@H](Cc1c[nH]cn1)NC(=O)CN)C(=O)N[C@H](C(=O)N1CCC[C@H]1C(=O)N[C@@H](CCCCN)C(=O)N[C@@H](Cc1ccccc1)C(=O)N[C@@H](CCCCN)C(=O)N[C@@H](CCCNC(=N)N)C(=O)N[C@@H](Cc1c[nH]c2ccccc12)C(=O)O)[C@@H](C)O [AD8] (H-GHYCNFSVTPKFKRW-OH)
target: C. albicans
recorded number: 6.25

Now take the following compound into account.
Qu. Item CSCC[C@H](NC(=O)[C@H](CCCCN)NC(=O)CNC(=O)[C@H](CCCCN)NC(=O)[C@H](Cc1ccc(O)cc1)NC(=O)[C@H](CC(N)=O)NC(=O)[C@H](CC(C)C)NC(=O)[C@H](CCC(N)=O)NC(=O)[C@H](CC(C)C)NC(=O)[C@@H](N)CCCNC(=N)N)C(=O)N[C@@H](Cc1c[nH]c2ccccc12)C(=O)N[C@@H](CS)C(=O)N1CCC[C@H]1C(=O)NCC(=O)N[C@@H](Cc1c[nH]c2ccccc12)C(=O)O [AD11] (H-RLQLNYKGKMWCPGW-OH) has what recorded MFC (µM) C. albicans?
Ans. 25

* * *

Test system: S. enterica mature biofilm
test summary: Antibiofilm microtiter plate assay (mature biofilm, crystal violet)
Format: cell-based, Salmonella enterica (ATCC, 14028)
test context: tested 12.5-200 µM
Where a SMILES comes first, the peptide text is derived from it.
parameter: Minimal biofilm eradication concentration (MBEC) S. enterica

Qu. Which Minimal biofilm eradication concentration (MBEC) S. enterica is listed for CC(C)[C@H](NC(=O)[C@H](CO)NC(=O)[C@H](Cc1ccccc1)NC(=O)[C@H](CC(N)=O)NC(=O)[C@H](CS)NC(=O)[C@H](Cc1ccc(O)cc1)NC(=O)[C@H](Cc1c[nH]cn1)NC(=O)CN)C(=O)N[C@H](C(=O)N1CCC[C@H]1C(=O)N[C@@H](CCCCN)C(=O)N[C@@H](Cc1ccccc1)C(=O)N[C@@H](CCCCN)C(=O)N[C@@H](CCCNC(=N)N)C(=O)N[C@@H](Cc1c[nH]c2ccccc12)C(=O)O)[C@@H](C)O [AD8] (H-GHYCNFSVTPKFKRW-OH) ?
Ans. 200 µM

* * *

// MIC (µM) P. aeruginosa lookup, one value per entry
Test system: P. aeruginosa
Format: cell-based, Pseudomonas aeruginosa (ATCC, 10145)
test context: micro-broth dilution, 3 h peptide treatment then MHB 18 h, 37 °C, OD 600 nm
Text: The microbial strains used in this study were Bacillus subtilis (ATCC, 11774), Candida albicans (TIMM, 1768), Enterococcus faecalis (ATCC, 33186), Escherichia coli (ATCC, 11775), Klebsiella pneumoniae (ATCC, 13883), Methicillin-resistant Staphylococcus aureus (ATCC, BAA-41), Pseudomonas aeruginosa (ATCC, 10145), Salmonella enterica (ATCC, 14028), Serratia marcescens (ATCC, 13880), Staphylococcus aureus (ATCC, 25923) and Vibrio parahaemolyticus (ATCC, 17802). […]
Where a SMILES comes first, the peptide text is derived from it.
Numeric only. Scale: µM

compound: CC(C)C[C@H](NC(=O)[C@H](CCCNC(=N)N)NC(=O)[C@H](Cc1c[nH]c2ccccc12)NC(=O)[C@H](CCCNC(=N)N)NC(=O)[C@H](CC(C)C)NC(=O)[C@@H](N)Cc1ccccc1)C(=O)N[C@@H](CCCCN)C(=O)N[C@@H](Cc1ccccc1)C(=O)N[C@@H](CCCCN)C(=O)N[C@@H](CO)C(=O)N[C@@H](CCCCN)C(=O)N[C@H](C(=O)N[C@@H](Cc1c[nH]c2ccccc12)C(=O)N[C@@H](CS)C(=O)N1CCC[C@H]1C(=O)O)C(C)C [AD7] (H-FLRWRLKFKSKVWCP-OH)
recorded number: 6.25

Qu. For the record CC(C)C[C@H](NC(=O)[C@H](C)NC(=O)[C@H](Cc1ccccc1)NC(=O)[C@@H](N)Cc1ccccc1)C(=O)N[C@@H](CCC(N)=O)C(=O)N[C@@H](CS)C(=O)N[C@@H](C)C(=O)N[C@@H](C)C(=O)N[C@@H](CCCCN)C(=O)N[C@H](C(=O)N[C@@H](CCCNC(=N)N)C(=O)N[C@H](C(=O)N[C@@H](CCCNC(=N)N)C(=O)N[C@@H](CCCNC(=N)N)C(=O)N[C@H](C(=O)O)C(C)C)[C@@H](C)O)[C@@H](C)O [AD12] (H-FFALQCAAKTRTRRV-OH) , what value of MIC (µM) P. aeruginosa is listed for P. aeruginosa?
Ans. 12.5

Qu. I'm curious: which MIC (µM) P. aeruginosa was measured for CC(C)[C@H](NC(=O)[C@H](CO)NC(=O)[C@H](Cc1ccccc1)NC(=O)[C@H](CC(N)=O)NC(=O)[C@H](CS)NC(=O)[C@H](Cc1ccc(O)cc1)NC(=O)[C@H](Cc1c[nH]cn1)NC(=O)CN)C(=O)N[C@H](C(=O)N1CCC[C@H]1C(=O)N[C@@H](CCCCN)C(=O)N[C@@H](Cc1ccccc1)C(=O)N[C@@H](CCCCN)C(=O)N[C@@H](CCCNC(=N)N)C(=O)N[C@@H](Cc1c[nH]c2ccccc12)C(=O)O)[C@@H](C)O [AD8] (H-GHYCNFSVTPKFKRW-OH) tested on P. aeruginosa?
Ans. 25

Qu. Item CSCC[C@H](NC(=O)[C@H](CCCCN)NC(=O)CNC(=O)[C@H](CCCCN)NC(=O)[C@H](Cc1ccc(O)cc1)NC(=O)[C@H](CC(N)=O)NC(=O)[C@H](CC(C)C)NC(=O)[C@H](CCC(N)=O)NC(=O)[C@H](CC(C)C)NC(=O)[C@@H](N)CCCNC(=N)N)C(=O)N[C@@H](Cc1c[nH]c2ccccc12)C(=O)N[C@@H](CS)C(=O)N1CCC[C@H]1C(=O)NCC(=O)N[C@@H](Cc1c[nH]c2ccccc12)C(=O)O [AD11] (H-RLQLNYKGKMWCPGW-OH) with P. aeruginosa - MIC (µM) P. aeruginosa?
Ans. 25

* * *

System: S. enterica mature biofilm
test summary: Antibiofilm microtiter plate assay (mature biofilm, crystal violet)
Format: cell-based, Salmonella enterica (ATCC, 14028)
test context: tested 12.5-200 µM
Where a SMILES comes first, the peptide text is derived from it.
Reported Minimal biofilm eradication concentration (MBEC) S. enterica values are given for each entry in this list.

Illustrative cases are given below, each with its answer.
molecule: CC(C)C[C@H](NC(=O)[C@H](C)NC(=O)[C@H](Cc1ccccc1)NC(=O)[C@@H](N)Cc1ccccc1)C(=O)N[C@@H](CCC(N)=O)C(=O)N[C@@H](CS)C(=O)N[C@@H](C)C(=O)N[C@@H](C)C(=O)N[C@@H](CCCCN)C(=O)N[C@H](C(=O)N[C@@H](CCCNC(=N)N)C(=O)N[C@H](C(=O)N[C@@H](CCCNC(=N)N)C(=O)N[C@@H](CCCNC(=N)N)C(=O)N[C@H](C(=O)O)C(C)C)[C@@H](C)O)[C@@H](C)O [AD12] (H-FFALQCAAKTRTRRV-OH)
target: S. enterica mature biofilm
result: 200 µM
--
molecule: CSCC[C@H](NC(=O)[C@H](CCCCN)NC(=O)CNC(=O)[C@H](CCCCN)NC(=O)[C@H](Cc1ccc(O)cc1)NC(=O)[C@H](CC(N)=O)NC(=O)[C@H](CC(C)C)NC(=O)[C@H](CCC(N)=O)NC(=O)[C@H](CC(C)C)NC(=O)[C@@H](N)CCCNC(=N)N)C(=O)N[C@@H](Cc1c[nH]c2ccccc12)C(=O)N[C@@H](CS)C(=O)N1CCC[C@H]1C(=O)NCC(=O)N[C@@H](Cc1c[nH]c2ccccc12)C(=O)O [AD11] (H-RLQLNYKGKMWCPGW-OH)
target: S. enterica mature biofilm
result: 200 µM

Shifting focus to the molecule that follows.
Qu. Which Minimal biofilm eradication concentration (MBEC) S. enterica is reported for this molecule? CC(C)C[C@H](NC(=O)[C@H](CCCNC(=N)N)NC(=O)[C@H](Cc1c[nH]c2ccccc12)NC(=O)[C@H](CCCNC(=N)N)NC(=O)[C@H](CC(C)C)NC(=O)[C@@H](N)Cc1ccccc1)C(=O)N[C@@H](CCCCN)C(=O)N[C@@H](Cc1ccccc1)C(=O)N[C@@H](CCCCN)C(=O)N[C@@H](CO)C(=O)N[C@@H](CCCCN)C(=O)N[C@H](C(=O)N[C@@H](Cc1c[nH]c2ccccc12)C(=O)N[C@@H](CS)C(=O)N1CCC[C@H]1C(=O)O)C(C)C [AD7] (H-FLRWRLKFKSKVWCP-OH)
Ans. 100 µM
